// provenance: ChEMBL document CHEMBL1149126

- System: GABA-A receptor; alpha-3/beta-3/gamma-2 (Homo sapiens) (UniProt P18507+P28472+P34903)
- Assay Name: Maximum percent change compared to GABA EC20 against GABA-A alpha-3-beta-3-gamma-2 receptor
- Assay type: functional
Outcome Measure: Efficacy (%)
Return type: number; implicit unit %.

Would you mind telling me what Efficacy value was observed for Cc1cccc2c(OCc3ccccn3)nn3c(-c4ccccc4)nnc3c12 ?
19

Would you mind telling me what Efficacy value was observed for c1ccc(-c2nnc3c4ccccc4c(OCc4ccccn4)nn23)cc1 ?
-16

Would you mind telling me what Efficacy value was observed for Cc1cccc2c1c(OCc1ccccn1)nn1c(-c3ccccc3)nnc21 ?
39

====

- System: GABA-A receptor; alpha-5/beta-3/gamma-2 (Homo sapiens, UniProt P18507+P28472+P31644)
- Assay Name: Binding affinity for human GABA-A receptor alpha-5-beta-3-gamma-2 subunits in L(tk-) cells
So basically, if Ki comes in under 20 nM it's label 1, and if it's 20 nM or more it's label 0.

# check: Ki < 20 nM for COc1cccc(COc2nn3c(-c4ccccc4)nnc3c3ccccc23)c1
label 0

# check: Ki < 20 nM for c1ccc(-c2nnc3c4ccccc4c(OCc4cccs4)nn23)cc1
label 0

# check: Ki < 20 nM for Cn1ccnc1COc1nn2c(-c3ccccc3)nnc2c2ccccc12
label 1

# check: Ki < 20 nM for c1ccc(-c2nnc3c4ccccc4c(OCCc4ccccn4)nn23)cc1
label 1

# check: Ki < 20 nM for Clc1ccccc1COc1nn2c(-c3ccccc3)nnc2c2ccccc12
label 0

# check: Ki < 20 nM for CCc1nnc2c3ccccc3c(OCc3ccccn3)nn12
label 1

====

- System: GABA-A receptor; alpha-3/beta-3/gamma-2 (Homo sapiens, UniProt P18507+P28472+P34903)
- Sequence (P18507 whole entry): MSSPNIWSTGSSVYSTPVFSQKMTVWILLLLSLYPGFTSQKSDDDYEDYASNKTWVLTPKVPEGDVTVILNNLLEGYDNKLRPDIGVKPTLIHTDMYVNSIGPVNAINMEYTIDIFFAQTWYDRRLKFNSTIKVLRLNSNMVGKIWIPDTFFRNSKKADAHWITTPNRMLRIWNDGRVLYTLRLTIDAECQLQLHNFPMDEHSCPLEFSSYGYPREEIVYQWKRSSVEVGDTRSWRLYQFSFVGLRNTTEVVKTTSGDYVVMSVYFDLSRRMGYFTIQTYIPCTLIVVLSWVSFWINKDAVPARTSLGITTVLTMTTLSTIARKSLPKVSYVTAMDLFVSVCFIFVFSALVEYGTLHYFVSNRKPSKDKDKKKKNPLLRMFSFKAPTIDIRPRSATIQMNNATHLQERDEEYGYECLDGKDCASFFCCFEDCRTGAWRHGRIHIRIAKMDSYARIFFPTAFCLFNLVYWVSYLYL
- Sequence (P28472 whole entry): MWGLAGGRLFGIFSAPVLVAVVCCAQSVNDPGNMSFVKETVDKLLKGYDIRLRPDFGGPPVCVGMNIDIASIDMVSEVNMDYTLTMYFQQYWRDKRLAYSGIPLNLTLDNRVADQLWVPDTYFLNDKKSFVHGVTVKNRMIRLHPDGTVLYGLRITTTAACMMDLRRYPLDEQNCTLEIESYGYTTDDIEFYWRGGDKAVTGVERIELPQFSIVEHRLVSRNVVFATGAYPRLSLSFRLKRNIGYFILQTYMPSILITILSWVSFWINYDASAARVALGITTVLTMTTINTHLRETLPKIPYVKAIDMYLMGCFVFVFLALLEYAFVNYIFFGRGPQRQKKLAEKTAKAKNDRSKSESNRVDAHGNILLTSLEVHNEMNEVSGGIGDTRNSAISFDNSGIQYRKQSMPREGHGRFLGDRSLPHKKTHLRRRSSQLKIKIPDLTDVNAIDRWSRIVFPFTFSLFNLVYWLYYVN
- Sequence (P34903 whole entry): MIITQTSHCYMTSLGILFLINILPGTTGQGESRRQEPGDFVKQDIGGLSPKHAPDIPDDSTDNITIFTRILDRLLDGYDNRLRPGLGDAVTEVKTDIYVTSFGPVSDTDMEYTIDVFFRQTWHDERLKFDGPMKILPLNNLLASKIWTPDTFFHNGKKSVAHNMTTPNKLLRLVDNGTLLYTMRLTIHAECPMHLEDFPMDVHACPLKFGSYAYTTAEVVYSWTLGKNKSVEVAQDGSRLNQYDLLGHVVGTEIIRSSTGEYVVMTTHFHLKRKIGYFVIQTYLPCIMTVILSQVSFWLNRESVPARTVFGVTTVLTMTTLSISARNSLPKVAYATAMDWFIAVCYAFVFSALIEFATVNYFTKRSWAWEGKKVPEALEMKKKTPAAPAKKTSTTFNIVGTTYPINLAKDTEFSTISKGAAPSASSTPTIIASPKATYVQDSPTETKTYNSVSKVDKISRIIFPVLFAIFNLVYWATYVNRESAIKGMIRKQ
- Assay Name: Binding affinity for human GABA-A receptor alpha-3-beta-3-gamma-2 subunits in L(tk-) cells
So basically, if Ki comes in under 40 nM it's t, and if it's 40 nM or more it's f.

# check: Ki < 40 nM for c1ccc(-c2nnc3c4ccccc4c(OCC4CCNCC4)nn23)cc1
t

# check: Ki < 40 nM for Cc1cccc2c(OCc3ccccn3)nn3c(-c4ccccc4)nnc3c12
t

# check: Ki < 40 nM for Cc1ccc(COc2nn3c(-c4ccccc4)nnc3c3ccccc23)nc1
t

# check: Ki < 40 nM for COc1nn2c(-c3ccccc3)nnc2c2ccccc12
f

# check: Ki < 40 nM for c1ccc(-c2nnc3c4c(c(OCc5ccccn5)nn23)CCCCC4)cc1
t

# check: Ki < 40 nM for N#Cc1cccc(COc2nn3c(-c4ccccc4)nnc3c3ccccc23)c1
f
